Experimental Protocol: DTT reactivity assessed as compound remaining at 50 uM after 1 hr at pH 7.4 by LC-UV analysis
Type: physicochemical
Experimental Setup: read-out: Activity
Metric: remaining at 1 h, 50 µM
Quote the value and follow it with the unit of measurement.

> print(dat)
                                 smiles.str                   metric  reported.value
1  C=CC(=O)Nc1cccc(Oc2nc(Nc3ccc(N4CCN(C)CC4)cc3OC)ncc2Cl)c1  remaining at 1 h, 50 µM           11.3%

// switching to the query molecule
Qu. Give its remaining at 1 h, 50 µM value. Item: COc1cc(N2CCN(C)CC2)ccc1Nc1ncc(Cl)c(Oc2cccc(NC(=O)CCN3CCN(CCO)CC3)c2)n1
Ans. 101%

These entries and their values trace back to ChEMBL document CHEMBL3232794.
